Catalogue of pKi values
TARGET: T1, memapsin 2 (Homo sapiens, UniProt P56817)
T1 construct: pET-11 vector-derived residues 1-15 of promemapsin 2-T1 (N, cleaved yes); made in house; host or cells: E. coli
T1 sequence (P56817 41-454 limits assumed): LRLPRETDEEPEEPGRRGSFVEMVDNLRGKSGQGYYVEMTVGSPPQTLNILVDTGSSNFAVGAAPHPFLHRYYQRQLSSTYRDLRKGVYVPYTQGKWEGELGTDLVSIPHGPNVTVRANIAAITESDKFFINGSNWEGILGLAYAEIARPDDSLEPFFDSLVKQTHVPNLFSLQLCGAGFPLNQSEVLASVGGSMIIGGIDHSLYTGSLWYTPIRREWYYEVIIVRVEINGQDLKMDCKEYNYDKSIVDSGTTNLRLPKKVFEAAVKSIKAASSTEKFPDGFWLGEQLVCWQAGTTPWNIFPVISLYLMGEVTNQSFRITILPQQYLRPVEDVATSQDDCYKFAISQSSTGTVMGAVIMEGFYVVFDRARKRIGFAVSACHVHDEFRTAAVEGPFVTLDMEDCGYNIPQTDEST
METHOD_DESCRIPTION: Inhibition of memapsin 2 proteolytic activity, fluorogenic substrate FS-2
Format: biochemical
CONDITION_NOTES: memapsin 2; independent of substrate, converted from Ki apparent; read-out: Ki
Description: Ki is the inhibition equilibrium constant which indicates the ability of compounds to inhibit the β-secretase activity of memapsin 2 and memapsin 1. […] The K1 value is independent of the substrate, and converted from Ki apparent. The Vi/Vo values depicted in Table 1 were determined at conditions under which the enzyme and inhibitor concentrations were equal (e.g., about 80 nM, 100 nM). […]
pKi: −log10 of the molar value.
MEASURED_ENDPOINT: pKi

molecule="CSCC[C@H](NC(=O)[C@@H](NC(=O)OC(C)(C)C)C(C)C)C(=O)N[C@@H](CC(C)C)[C@@H](O)C[C@@H](C)C(=O)N[C@@H](C(C)C)C1CCCCO1 (stereo partly shown) [MMI-131]" quantitative_result=4.24
molecule=CSCC[C@@H](NC(=O)[C@H](CC(C)C)NC(=O)OC(C)(C)C)C(=O)N[C@@H](CC(C)C)[C@@H](O)C[C@@H](C)C(=O)N[C@H](C(=O)NCc1ccccc1)C(C)C quantitative_result=6.28
molecule="CSCC[C@H](NC(=O)[C@@H](NC(=O)OC(C)(C)C)C(C)C)C(=O)N[C@@H](CC(C)C)[C@@H](O)C[C@@H](C)C(=O)N[C@@H]1CCCC[C@@H]1O [MMI-059]" quantitative_result=4.38
molecule=CC(C)C[C@H](NC(=O)[C@H](CC(N)=O)NC(=O)[C@@H](NC(=O)OC(C)(C)C)C(C)C)[C@@H](O)C[C@@H](C)C(=O)N[C@H](C(=O)NCc1ccccc1)C(C)C quantitative_result=8.25
molecule=CSCC[C@H](NC(=O)OCn1nc(C)cc1C)C(=O)N[C@@H](CC(C)C)[C@@H](O)C[C@]1(C)CCN([C@@H](CC(C)C)C(=O)NCC(C)C)C1=O quantitative_result=6.61
molecule=CSCC[C@H](NC(=O)[C@H](CC(C)C)NS(=O)(=O)c1ccc(C)cc1)C(=O)N[C@@H](CC(C)C)[C@@H](O)C[C@@H](C)C(=O)N[C@H](C(=O)NCc1ccccc1)C(C)C quantitative_result=6.71
molecule=CSCC[C@H](NC(=O)[C@@H](NC(=O)OC(C)(C)C)C(C)C)C(=O)N[C@@H](CC(C)C)[C@@H](O)C[C@@H](C)C(=O)N[C@H](C(=O)NCc1cccnc1)C(C)C quantitative_result=6.25
molecule=CSCC[C@H](NC(=O)[C@@H](NC(=O)OC(C)(C)C)[C@H](C)O)C(=O)N[C@@H](CC(C)C)[C@@H](O)C[C@@H](C)C(=O)N[C@@H](CC(C)C)C(=O)NC(C)C quantitative_result=7.23
molecule=CC(C)C[C@H](NC(=O)[C@H](CS(C)(=O)=O)NC(=O)[C@@H](NC(=O)OC(C)(C)C)C(C)C)[C@@H](O)C[C@@H](C)C(=O)N[C@H](C(=O)NCc1ccccc1)C(C)C quantitative_result=8.00
molecule=CSCC[C@H](NC(=O)[C@H](CC(C)C)NC(=O)OC(C)(C)C)C(=O)N[C@@H](CC(C)C)[C@H](O)C[C@H](C)C(=O)N[C@H](C(=O)NCc1ccccc1)C(C)C quantitative_result=9.48

###

TARGET: T1, memapsin 2 (Homo sapiens, UniProt P56817)
T1 construct: pET-11 vector-derived residues 1-15 of promemapsin 2-T1 (N, cleaved yes); made in house; host or cells: E. coli
METHOD_DESCRIPTION: Inhibition of memapsin 2 proteolytic activity, fluorogenic substrate FS-2
Type: biochemical
CONDITION_NOTES: memapsin 2; independent of substrate, converted from Ki apparent; read-out: Ki
pKi: −log10 of the molar value.
Class (required): determined from pKi; valid ranges are low: < 6; intermediate: ≥ 6 and < 7; high: ≥ 7

molecule=CSCC[C@H](NC(=O)[C@@H](NC(=O)OC(C)(C)C)C(C)C)C(=O)N[C@@H](CC(C)C)[C@@H](O)C[C@@H](C)C(=O)N[C@@H](C)C(=O)NCc1ccccc1 assigned_label=high
molecule=CCCCNC(=O)[C@@H](NC(=O)[C@H](C)C[C@H](O)[C@H](CC1CCCC1)NC(=O)[C@H](CCSC)NC(=O)OCn1nc(C)cc1C)C(C)C assigned_label=intermediate
molecule=CC(C)C[C@H](NC(=O)[C@H](CCS(C)(=O)=O)NC(=O)OC(C)(C)C)[C@@H](O)C[C@@H](C)C(=O)N[C@H](C(=O)NCc1ccccc1)C(C)C assigned_label=low
molecule=CSCC[C@H](NC(=O)OC(C)(C)C)C(=O)N[C@@H](CC(C)C)[C@@H](O)C[C@@H](C)C(=O)N[C@H](C(=O)NCc1ccccc1)C(C)C assigned_label=low
molecule="CSCC[C@H](NC(=O)[C@@H](NC(=O)OC(C)(C)C)C(C)C)C(=O)N[C@@H](CC(C)C)[C@@H](O)C[C@@H](C)C(=O)N[C@@H](C(C)C)C1CC(Cc2ccccc2)CC(=O)O1 (stereo partly shown) [MMI-140]" assigned_label=low
molecule=CSCC[C@H](NC(=O)[C@H](C)NC(=O)[C@H](C)C[C@H](O)[C@H](CC(C)C)NC(=O)OC(C)(C)C)C(=O)NCc1ccccc1 assigned_label=low
molecule=CSCC[C@H](NC(=O)OCn1nc(C)cc1C)C(=O)N[C@@H](CC(C)C)[C@@H](O)C[C@@H](C)C(=O)N[C@@H](CC(C)C)C(=O)NC(CF)CF assigned_label=high
molecule=CCC[C@H](C[C@H](O)[C@H](CC(C)C)NC(=O)[C@H](CSC)NC(=O)OCc1cccnc1)C(=O)N[C@H](C(=O)NCc1ccccc1)C(C)C assigned_label=intermediate
molecule=CCCCNC(=O)[C@@H](NC(=O)[C@H](C)C[C@H](O)[C@H](CC(C)C)NC(=O)[C@H](CCSC)NC(=O)[C@H](CC(C)C)NC(=O)OC(C)(C)C)C(C)C assigned_label=high
molecule=C=CC[C@H](C[C@H](O)[C@H](CC(C)C)NC(=O)[C@H](CC(N)=O)NC(=O)OC(C)(C)C)C(=O)N[C@H](C(=O)NCc1ccccc1)C(C)C assigned_label=low
molecule=CSCC[C@H](NC(=O)[C@H](CC(C)C)NC(C)=O)C(=O)N[C@@H](CC(C)C)[C@@H](O)C[C@@H](C)C(=O)N[C@H](C(=O)NCc1ccccc1)C(C)C assigned_label=high
molecule=COCC[C@H](NC(=O)[C@H](CC(C)C)NC(=O)OC(C)(C)C)C(=O)N[C@@H](CC(C)C)[C@@H](O)C[C@@H](C)C(=O)N[C@@H](CC(C)C)C(=O)NC(C)C assigned_label=high
molecule=CSCC[C@@H](COC(=O)N[C@@H](CC(C)C)[C@@H](O)C[C@@H](C)C(=O)N[C@H](C(=O)NCc1ccccc1)C(C)C)NC(=O)[C@@H](NC(=O)OC(C)(C)C)C(C)C assigned_label=intermediate
molecule=CSCC[C@H](NC(=O)OCc1c(C)ncn1C)C(=O)N[C@@H](CC(C)C)[C@@H](O)C[C@@H](C)C(=O)N[C@H](C(=O)NCC(C)C)C(C)C assigned_label=intermediate
molecule="CSCC[C@H](NC(=O)C(C)Cn1nc(C)cc1C)C(=O)N[C@@H](CC(C)C)[C@@H](O)C[C@@H](C)C(=O)N[C@H](C(=O)NCC(C)C)C(C)C (stereo partly shown) [MMI-196]" assigned_label=high
molecule=CSCC[C@H](NC(=O)c1cccc(C)c1C)C(=O)N[C@@H](CC(C)C)[C@@H](O)C[C@@H](C)C(=O)N[C@@H](CC(C)C)C(=O)NC(C)C assigned_label=intermediate
molecule="CC(C)C[C@H](NC(=O)OC(C)(C)C)C(=O)N[C@@H](CC1CCCO1)C(=O)N[C@@H](CC(C)C)[C@@H](O)C[C@@H](C)C(=O)N[C@@H](CC(C)C)C(=O)NC(C)C (stereo partly shown) [MMI-205]" assigned_label=high

###

TARGET: T1, memapsin 2 (Homo sapiens, UniProt P56817)
T1 construct: pET-11 vector-derived residues 1-15 of promemapsin 2-T1 (N, cleaved yes); made in house; host or cells: E. coli
METHOD_DESCRIPTION: Inhibition of memapsin 2 proteolytic activity, fluorogenic substrate FS-2
Format: biochemical
CONDITION_NOTES: memapsin 2; independent of substrate, converted from Ki apparent; read-out: Ki
MEASURED_ENDPOINT: Ki (nM)

smiles_code=CC(C)C[C@H](NC(=O)[C@H](CC(N)=O)NC(=O)OC(C)(C)C)[C@@H](O)C[C@@H](C)C(=O)N[C@H](C(=O)NCc1ccccc1)C(C)C quantitative_result=3100
smiles_code=CSCC[C@H](NS(=O)(=O)c1ccc(CO)cc1)C(=O)N[C@@H](Cc1ccccc1)[C@@H](O)C[C@@H](C)C(=O)N[C@H](C(=O)NCc1ccccc1)C(C)C quantitative_result=34200
smiles_code=CC(C)C[C@H](NC(=O)OC(C)(C)C)C(=O)N[C@@H](CCS(C)(=O)=O)C(=O)N[C@@H](CC(C)C)[C@@H](O)C[C@@H](C)C(=O)N[C@H](C(=O)NCc1ccccc1)C(C)C quantitative_result=1.18
smiles_code=CSCC[C@H](NC(=O)OCn1nc(C)cc1C)C(=O)N[C@@H](CC(C)C)[C@@H](O)C[C@@H](C)C(=O)N[C@@H](CC(C)C)C(=O)NC(C)C quantitative_result=43.8
smiles_code=CSC[C@H](NC(=O)[C@@H](NC(=O)OC(C)(C)C)C(C)C)C(=O)N[C@@H](CC(C)C)[C@@H](O)C[C@@H](C)C(=O)N[C@H](C(=O)NCc1ccccc1)C(C)C quantitative_result=40.9
